- target or test system: T1, human GIP receptor (human) (UniProt P48546)
- T1 sequence (looked up): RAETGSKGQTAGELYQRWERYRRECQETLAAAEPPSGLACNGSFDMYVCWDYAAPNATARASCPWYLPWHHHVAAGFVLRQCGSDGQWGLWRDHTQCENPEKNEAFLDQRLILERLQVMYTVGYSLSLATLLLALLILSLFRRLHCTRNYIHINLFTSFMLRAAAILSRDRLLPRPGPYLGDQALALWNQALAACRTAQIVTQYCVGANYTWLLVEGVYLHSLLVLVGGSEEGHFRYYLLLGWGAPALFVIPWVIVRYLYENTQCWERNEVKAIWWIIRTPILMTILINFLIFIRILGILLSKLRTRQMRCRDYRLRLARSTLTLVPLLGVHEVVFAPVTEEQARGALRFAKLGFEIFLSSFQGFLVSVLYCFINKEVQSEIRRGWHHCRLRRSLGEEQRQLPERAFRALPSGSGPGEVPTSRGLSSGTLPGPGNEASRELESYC
- test summary: cell-based or functional assay
value type: cAMP Rel EC50 (nM)

YXQGTFTSDFSQXLDKKAQXAFIEYLIAGGPSSGAPPPSGS (synthetic construct; SITE 2: note = 2-Aminoisobutyric Acid; SITE 13: note = alpha-methyl-leucine; SITE 17: note = Lysine is chemically modified through conjugation of the epsilon-amino group of the Lysine side chain with (2-[2-(2-Amino-ethoxy)-ethoxy]-acetyl)-(gamma-Glu)-CO-(CH2) 16-CO2H; SITE 20: n) [Example 875 (SEQ ID NO: 881)]: 13.8
YXQGTFTSDFSQXLDKKAQXAFIEYLIEXGPSSGAPPPSGS (not fully specified; synthetic construct; SITE 2: note = 2-Aminoisobutyric Acid; SITE 13: note = alpha-methyl-leucine; SITE 17: note = Lysine is chemically modified through conjugation of the epsilon-amino group of the Lysine side chain with (gamma-Glu)3-CO-(CH2)16-CO2H; SITE 20: note = 3-(4-Pyridyl)-L-alanine; SITE 29:) [Example 862 (SEQ ID NO: 868)]: 12.4
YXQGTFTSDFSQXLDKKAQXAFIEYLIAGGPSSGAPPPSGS (not fully specified; synthetic construct; SITE 2: note = 2-Aminoisobutyric Acid; SITE 13: note = alpha-methyl-leucine; SITE 17: note = Lysine is chemically modified through conjugation of the epsilon-amino group of the Lysine side chain with (gamma-Glu)2-CO-(CH2)16-CO2H; SITE 20: note = 3-(4-Pyridyl)-L-alanine; SITE 41:) [Example 876 (SEQ ID NO: 882)]: 7.94
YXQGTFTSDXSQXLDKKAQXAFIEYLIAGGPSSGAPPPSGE (synthetic construct; SITE 2: note = 2-Aminoisobutyric Acid; SITE 10: note = 3-(4-Pyridyl)-L-alanine; SITE 13: note = alpha-methyl-leucine; SITE 17: note = Lysine is chemically modified through conjugation of the epsilon-amino group of the Lysine side chain with (gamma-Glu)2-CO-(CH2)16-CO2H; SITE 20:) [Example 883 (SEQ ID NO: 889)]: 9.41
YXQGTFTSDXSQXLDKKAQXAFIEYLIEXGPSSGAPPPSGSGE (not fully specified; C-terminus uncertain, likely amide; synthetic construct; SITE 2: note = 2-Aminoisobutyric Acid; SITE 10: note = 3-(4-Pyridyl)-L-alanine; SITE 13: note = alpha-methyl-leucine; SITE 17: note = Lysine is chemically modified through conjugation of the epsilon-amino group of the Lysine side chain with (gamma-Glu)2-CO-(CH2)16-CO2H; SITE 20:) [Example 891 (SEQ ID NO: 897)]: 16
